binders and their reported ELISA Titer
Biological target: T1, recombinant human βIG-H3 (human, UniProt Q15582 24-683)
T1 construct: Bought recombinant protein; also called rhβIG-H3; rhbIG-H3
T1 sequence (looked up): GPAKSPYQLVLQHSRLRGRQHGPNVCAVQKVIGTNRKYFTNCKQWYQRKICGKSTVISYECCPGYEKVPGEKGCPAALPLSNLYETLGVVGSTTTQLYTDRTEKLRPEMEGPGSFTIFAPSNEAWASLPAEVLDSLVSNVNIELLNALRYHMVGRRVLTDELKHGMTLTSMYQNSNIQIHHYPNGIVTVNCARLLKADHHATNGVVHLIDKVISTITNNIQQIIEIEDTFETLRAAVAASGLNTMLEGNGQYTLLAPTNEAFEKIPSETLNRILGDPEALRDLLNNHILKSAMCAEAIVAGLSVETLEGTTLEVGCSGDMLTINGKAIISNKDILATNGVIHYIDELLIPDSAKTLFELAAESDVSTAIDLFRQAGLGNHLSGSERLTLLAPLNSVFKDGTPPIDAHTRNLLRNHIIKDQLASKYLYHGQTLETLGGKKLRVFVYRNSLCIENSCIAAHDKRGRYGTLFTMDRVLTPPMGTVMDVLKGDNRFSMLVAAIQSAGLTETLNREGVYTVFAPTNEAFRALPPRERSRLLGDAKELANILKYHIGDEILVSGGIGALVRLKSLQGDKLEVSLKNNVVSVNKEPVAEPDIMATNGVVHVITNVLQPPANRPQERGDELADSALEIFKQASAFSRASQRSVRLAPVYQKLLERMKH
Experiment: direct ELISA on coated rhβIG-H3, anti-human IgG-HRP
Report only the number, with the unit µg/mL understood.

# annotated cases, reported ELISA Titer shown
Chimeric huIgG1 k 18B3 (antibody, V domains shown, also called ch18B3; 18B3 chim) VH: EVQLVESGGGLVKPGGSLKLSCAASGFTFSDYYMYWVRQTPEKRLEWVATISDGGIYTYYPDSVKGRFTISRDSAKNNLYLQMTSLKSDDTAMYYCVRGWDRYDSWFACWGQGTLVTVSA VL: DIVMSQSPSSLVVSAGEKVTMTCKSSQSLLYSSNQKNYLAWYRQKPGQSPKLLIYWASTRESGVPDRFTGSGSGTDFTLTISSVKAEDLAVYYCQQYYRYPYTFGGGTKLEIKR :: 0.03
18B3 H330-V1.2/L228-V1 (antibody, human IgG1, kappa, V domains shown, also called H-330/L-228 V1.2) VH: QVQLVESGGGVVQPGGSLRLSCAASGFTFSDYYMYWVRQAPGKGLEWVATISDGGIYKYYADSVKGRFTISRDSSKNTLYLQMNSLRAEDTAVYYCVRGWDRYDSWFASWGQGTTVTVSS VL: DIVMTQSPLSLPVTPGEPASMSCRSSQSLLYSSNQKNYLAWYLQKPGQSPQLLIYWGSTRESGVPDRFSGSGSGTDFTLKISRVEAEDVGVYYCQQYYRYPYTFGQGTKLEIKR :: 0.0036
Humanized 18B3 E (H330-V1/L228-V1) (antibody, human IgG1, kappa, V domains shown, also called H330/L228) VH: QVQLVESGGGVVQPGGSLRLSCAASGFTFSDYYMYWVRQAPGKGLEWVATISDGGIYKYYADSVKGRFTISRDSSKNTLYLQMNSLRAEDTAVYYCVRGWDRYDSWFACWGQGTTVTVSS VL: DIVMTQSPLSLPVTPGEPASMSCRSSQSLLYSSNQKNYLAWYLQKPGQSPQLLIYWGSTRESGVPDRFSGSGSGTDFTLKISRVEAEDVGVYYCQQYYRYPYTFGQGTKLEIKR :: 0.04

Proceeding to the next binder to report its ELISA Titer.
What does the record list as ELISA Titer for Humanized 18B3 D (H311-V1/L228-V1) (antibody, human IgG1, kappa, V domains shown, also called H311/L228) VH: QVQLVESGGGLVKPGGSLRLSCAASGFTFSDYYMYWIRQAPGKGLEWVATISDGGIYIYYADSVKGRFTISRDSAKNSLYLQMNSLRAEDTAVYYCVRGWDRYDSWFACWGQGTTVTVSS VL: DIVMTQSPLSLPVTPGEPASMSCRSSQSLLYSSNQKNYLAWYLQKPGQSPQLLIYWGSTRESGVPDRFSGSGSGTDFTLKISRVEAEDVGVYYCQQYYRYPYTFGQGTKLEIKR ?
0.046

These entries and their values trace back to patent US20240368260A1.
